Just for reference, patent US20210388087A1 is where these values come from.

- experimental target: T1, Human CD3eg linker (human)
- T1 construct: single-chain construct; also called recombinant human CD3
- T1 chain: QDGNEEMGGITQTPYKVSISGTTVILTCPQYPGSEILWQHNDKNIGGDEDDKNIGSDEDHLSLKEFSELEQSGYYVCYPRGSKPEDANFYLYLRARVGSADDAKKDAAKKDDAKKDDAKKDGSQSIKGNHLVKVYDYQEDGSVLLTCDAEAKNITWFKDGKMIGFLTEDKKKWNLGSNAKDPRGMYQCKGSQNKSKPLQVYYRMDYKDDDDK
- experimental details: SPR, vs unmutated H183/L072
property name: fold change of affinity (fold)
The response must be a number in fold with no trailing unit.

binder: dBBDu183H G65K/dBBDu072L (antibody, name in Kabat numbering, V domains shown) VH: QVQLVESGGGLVQPGRSLRLSCAASGFTFSNAWMHWVRQAPGKGLEWVAQIKDKGNAYAAYYAPSVKKRFTISRDDSKNSIYLQMNSLKTEDTAVYYCHYVHYASASTVLPAFGVDAWGQGTTVTVSS VL: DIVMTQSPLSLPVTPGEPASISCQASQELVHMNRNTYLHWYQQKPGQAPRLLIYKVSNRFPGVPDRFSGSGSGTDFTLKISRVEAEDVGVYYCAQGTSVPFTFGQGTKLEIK
fold change of affinity (fold): 1.1

Now consider the entry below.
Task item: Quick one: fold change of affinity of dBBDu183H S99N/dBBDu072L (antibody, name in Kabat numbering, V domains shown) VH: QVQLVESGGGLVQPGRSLRLSCAASGFTFSNAWMHWVRQAPGKGLEWVAQIKDKGNAYAAYYAPSVKGRFTISRDDSKNSIYLQMNSLKTEDTAVYYCHYVHYANASTVLPAFGVDAWGQGTTVTVSS VL: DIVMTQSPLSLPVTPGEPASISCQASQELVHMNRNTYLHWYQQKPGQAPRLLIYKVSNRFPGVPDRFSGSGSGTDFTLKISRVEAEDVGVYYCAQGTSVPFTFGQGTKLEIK ?
Reply: 0.6
